This collection of values is drawn from the supplement of paper PMC10307832.

system: NCI-H1915; experiment: relative viability (nuclei count vs DMSO), 5 days (fraction); higher = more cells survive; details: first compound 0.04 µM
readoutLabel: relative viability
A bare number is all that is needed in reply.

relative viability reported for this compound Cc1sc2c(c1C)C(c1ccc(Cl)cc1)=N[C@@H](CC(=O)OC(C)(C)C)c1nnc(C)n1-2 [JQ1] + CS(=O)(=O)N1CCN(Cc2cc3nc(-c4cccc5[nH]ncc45)nc(N4CCOCC4)c3s2)CC1 [Pictilisib] (partner 1 µM) : 0.89

relative viability reported for this compound Cc1sc2c(c1C)C(c1ccc(Cl)cc1)=N[C@@H](CC(=O)OC(C)(C)C)c1nnc(C)n1-2 [JQ1] + Cc1nc(NC(=O)N2CCC[C@H]2C(N)=O)sc1-c1ccnc(C(C)(C)C(F)(F)F)c1 [Alpelisib] (partner 2 µM) : 1.05

relative viability reported for this compound Cc1sc2c(c1C)C(c1ccc(Cl)cc1)=N[C@@H](CC(=O)OC(C)(C)C)c1nnc(C)n1-2 [JQ1] + COc1cc2c(Oc3ccc(NC(=O)C4(C(=O)Nc5ccc(F)cc5)CC4)cc3F)ccnc2cc1OCCCN1CCOCC1 [Foretinib] (partner 0.25 µM) : 1.09

relative viability reported for this compound Cc1sc2c(c1C)C(c1ccc(Cl)cc1)=N[C@@H](CC(=O)OC(C)(C)C)c1nnc(C)n1-2 [JQ1] + Cc1nc(Nc2ncc(C(=O)Nc3c(C)cccc3Cl)s2)cc(N2CCN(CCO)CC2)n1 [Dasatinib] (partner 0.075 µM) : 0.281

----------
test system: LC-2-ad; assay: relative viability (nuclei count vs DMSO), 5 days (fraction); higher = more cells survive; conditions: first compound 5 µM
readoutLabel: relative viability

relative viability reported for this molecule O=C(O)CCCCC(CCSCc1ccccc1)SCc1ccccc1 (stereo not given) [CPI-613] + CC(C)C[C@H](NC(=O)[C@H](Cc1ccccc1)NC(=O)c1cnccn1)B(O)O [Bortezomib] (partner 0.002 µM) : 0.621

relative viability reported for this molecule O=C(O)CCCCC(CCSCc1ccccc1)SCc1ccccc1 (stereo not given) [CPI-613] + CC(=O)Nc1cccc(-n2c(=O)n(C3CC3)c(=O)c3c(Nc4ccc(I)cc4F)n(C)c(=O)c(C)c32)c1 [Trametinib] (partner 0.02 µM) : 0.857

relative viability reported for this molecule O=C(O)CCCCC(CCSCc1ccccc1)SCc1ccccc1 (stereo not given) [CPI-613] + O=C(c1cc(Cc2n[nH]c(=O)c3ccccc23)ccc1F)N1CCN(C(=O)C2CC2)CC1 [Olaparib] (partner 8 µM) : 0.629

relative viability reported for this molecule O=C(O)CCCCC(CCSCc1ccccc1)SCc1ccccc1 (stereo not given) [CPI-613] + CS(=O)(=O)CCNCc1ccc(-c2ccc3ncnc(Nc4ccc(OCc5cccc(F)c5)c(Cl)c4)c3c2)o1 [Lapatinib] (partner 2 µM) : 0.746

relative viability reported for this molecule O=C(O)CCCCC(CCSCc1ccccc1)SCc1ccccc1 (stereo not given) [CPI-613] + CC(=O)c1c(C)c2cnc(Nc3ccc(N4CCNCC4)cn3)nc2n(C2CCCC2)c1=O [Palbociclib] (partner 0.5 µM) : 0.446

----------
tested on: HCC-44; assay: relative viability (nuclei count vs DMSO), 5 days (fraction); higher = more cells survive; conditions: first compound 5 µM
Provide the recorded relative viability for the entries that follow.
A bare number is all that is needed in reply.

Known value: HCC-44 relative viability of the compound O=C(O)CCCCC(CCSCc1ccccc1)SCc1ccccc1 (centres undefined) [CPI-613] + N=C(N)NC(=N)NCCc1ccccc1 [Phenformin] (partner 250 µM) equals 0.15

Known value: HCC-44 relative viability of the compound O=C(O)CCCCC(CCSCc1ccccc1)SCc1ccccc1 (centres undefined) [CPI-613] + CC(=O)Nc1cccc(-n2c(=O)n(C3CC3)c(=O)c3c(Nc4ccc(I)cc4F)n(C)c(=O)c(C)c32)c1 [Trametinib] (partner 0.02 µM) equals 1.04

Known value: HCC-44 relative viability of the compound O=C(O)CCCCC(CCSCc1ccccc1)SCc1ccccc1 (centres undefined) [CPI-613] + O=C(CCCCCCC(=O)Nc1ccccc1)NO [Vorinostat] (partner 1 µM) equals 1.01

Known value: HCC-44 relative viability of the compound O=C(O)CCCCC(CCSCc1ccccc1)SCc1ccccc1 (centres undefined) [CPI-613] + Cc1nc(NC(=O)N2CCC[C@H]2C(N)=O)sc1-c1ccnc(C(C)(C)C(F)(F)F)c1 [Alpelisib] (partner 2 µM) equals 0.841

----------
tested on: PC-3 [JPC-3]; experiment: relative viability (nuclei count vs DMSO), 5 days (fraction); higher = more cells survive; conditions: first compound 0.04 µM
Provide the recorded relative viability for the entries that follow.
A bare number is all that is needed in reply.

relative viability reported for this compound Cc1sc2c(c1C)C(c1ccc(Cl)cc1)=N[C@@H](CC(=O)OC(C)(C)C)c1nnc(C)n1-2 [JQ1] + CCNC(=O)c1noc(-c2cc(C(C)C)c(O)cc2O)c1-c1ccc(CN2CCOCC2)cc1 [Luminespib] (partner 0.01 µM) : 0.82

relative viability reported for this compound Cc1sc2c(c1C)C(c1ccc(Cl)cc1)=N[C@@H](CC(=O)OC(C)(C)C)c1nnc(C)n1-2 [JQ1] + Nc1ncn([C@H]2C[C@H](O)[C@@H](CO)O2)c(=O)n1 [Decitabine] (partner 2 µM) : 0.864

relative viability reported for this compound Cc1sc2c(c1C)C(c1ccc(Cl)cc1)=N[C@@H](CC(=O)OC(C)(C)C)c1nnc(C)n1-2 [JQ1] + Cc1nc(NC(=O)N2CCC[C@H]2C(N)=O)sc1-c1ccnc(C(C)(C)C(F)(F)F)c1 [Alpelisib] (partner 2 µM) : 1.06

relative viability reported for this compound Cc1sc2c(c1C)C(c1ccc(Cl)cc1)=N[C@@H](CC(=O)OC(C)(C)C)c1nnc(C)n1-2 [JQ1] + COc1cc2c(Oc3ccc(NC(=O)C4(C(=O)Nc5ccc(F)cc5)CC4)cc3F)ccnc2cc1OCCCN1CCOCC1 [Foretinib] (partner 0.25 µM) : 1.06

relative viability reported for this compound Cc1sc2c(c1C)C(c1ccc(Cl)cc1)=N[C@@H](CC(=O)OC(C)(C)C)c1nnc(C)n1-2 [JQ1] + CC1(C)CCC(c2ccc(Cl)cc2)=C(CN2CCN(c3ccc(C(=O)NS(=O)(=O)c4ccc(N[C@H](CCN5CCOCC5)CSc5ccccc5)c(S(=O)(=O)C(F)(F)F)c4)cc3)CC2)C1 [Navitoclax] (partner 0.5 µM) : 0.781

relative viability reported for this compound Cc1sc2c(c1C)C(c1ccc(Cl)cc1)=N[C@@H](CC(=O)OC(C)(C)C)c1nnc(C)n1-2 [JQ1] + N=C(N)NC(=N)NCCc1ccccc1 [Phenformin] (partner 250 µM) : 0.466

relative viability reported for this compound Cc1sc2c(c1C)C(c1ccc(Cl)cc1)=N[C@@H](CC(=O)OC(C)(C)C)c1nnc(C)n1-2 [JQ1] + C[C@@H](Oc1cc(-c2cnn(C3CCNCC3)c2)cnc1N)c1c(Cl)ccc(F)c1Cl [Crizotinib] (partner 1 µM) : 1.06

----------
test system: NCI-H661; assay: relative viability (nuclei count vs DMSO), 5 days (fraction); higher = more cells survive; details: first compound 158.11 µM
relative viability under 0.4 gets MET, anything at or over 0.4 gets NOT MET.

Q: Please determine if O=C(O)CCCCC(CCSCc1ccccc1)SCc1ccccc1 (configuration not stated) [CPI-613] + Cc1nc(NC(=O)N2CCC[C@H]2C(N)=O)sc1-c1ccnc(C(C)(C)C(F)(F)F)c1 [Alpelisib] (partner 2 µM) is below 0.4 in terms of relative viability.
Ans: NOT MET

Q: Please determine if O=C(O)CCCCC(CCSCc1ccccc1)SCc1ccccc1 (configuration not stated) [CPI-613] + Nc1ncn([C@H]2C[C@H](O)[C@@H](CO)O2)c(=O)n1 [Decitabine] (partner 2 µM) is below 0.4 in terms of relative viability.
Ans: MET

Q: Please determine if O=C(O)CCCCC(CCSCc1ccccc1)SCc1ccccc1 (configuration not stated) [CPI-613] + COc1cccc2cc(-c3nc([C@H]4CC[C@H](C(=O)O)CC4)n4ncnc(N)c34)[nH]c12 [OSI-027] (partner 0.5 µM) is below 0.4 in terms of relative viability.
Ans: NOT MET

Q: Please determine if O=C(O)CCCCC(CCSCc1ccccc1)SCc1ccccc1 (configuration not stated) [CPI-613] + O=C(CCCCCCC(=O)Nc1ccccc1)NO [Vorinostat] (partner 1 µM) is below 0.4 in terms of relative viability.
Ans: NOT MET

Q: Please determine if O=C(O)CCCCC(CCSCc1ccccc1)SCc1ccccc1 (configuration not stated) [CPI-613] + CC(=O)Nc1cccc(-n2c(=O)n(C3CC3)c(=O)c3c(Nc4ccc(I)cc4F)n(C)c(=O)c(C)c32)c1 [Trametinib] (partner 0.02 µM) is below 0.4 in terms of relative viability.
Ans: MET

Q: Please determine if O=C(O)CCCCC(CCSCc1ccccc1)SCc1ccccc1 (configuration not stated) [CPI-613] + CC(C)C[C@H](NC(=O)[C@H](Cc1ccccc1)NC(=O)c1cnccn1)B(O)O [Bortezomib] (partner 0.002 µM) is below 0.4 in terms of relative viability.
Ans: NOT MET
